tested on: MS2 coat protein; assay: apparent KD of MS2 coat protein, switch ON state; designed switch direction (-1 OFF switch, 1 ON switch): -1; higher = weaker reporter binding; conditions: FMN input: 0 or 200 uM; Eterna round: R93 (includes R88 designs)
Rule: apparent KD of MS2 coat protein of 0.04 µM or more gives 1; anything lower gives -1.

residue_codes="CCGAGACAUGAGGAUCACCCAUGUGAGGAUAUAGGUGUAUGCUAAAAAAAGUUAACAACUAGAAGGCACAGAGG [JR_Exc001_Sub308]" class_name=1
residue_codes="AACAGUACAGGAUAUACAUGAGGAUCACCCAUGUAAAGGGAAUAAAACUAAAAUAAAAGUAGAAGGGUACUGGA [Moding Maslow revisited (73) 20]" class_name=1
residue_codes="AAGCCACAUGAGGAUCACCCAUGUAAGGAUAUGAACGAAAAUAAAUAAAAAUAAAAGUUCAGAAGGUACAAAAA [66%, Wbt, 23]" class_name=-1
residue_codes="AACUAGUCAGGAUAUACGAACAUGUCAAAAGACAUGAAGGGACAUGAGGAUCACCCAUGUAGAAGGGACUAGCA [74%, Web mod - With 2 less G's]" class_name=1
residue_codes="AGCUAGCAAGGAUAUGCGAACAUGUCAAAAGACGUGAAGGGACAUGAGGAUCACCCAUGUAGAAGGUGCUAGCA [JL 74% mod 9]" class_name=-1
residue_codes="AGGGAGUCAGGAUAUCGGAAAAAAAAACAACGAAAAAAAGACGAGAAGGGACAUGAGGAUCACCCAUGUAAGAA [milkweed 16]" class_name=1

----------
tested on: K4 kissing-loop RNA reporter; test: apparent KD of K4 kissing-loop reporter; higher = weaker reporter binding; conditions: Eterna round: R107; input ligand: none;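 note: bound reporter read as fluorescence of individual clusters on recovered sequencing chips by microscopy, with normalized cluster intensities fitted with a binding model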
Property: apparent KD of K4 kissing-loop reporter; scope: individual sequences
Quantity measured: apparent KD of K4 kissing-loop reporter (nM)

residue_codes="UAUGUACACGGGUAGUGAUACAUCGAGGAAGGAGCGUGCGCAGGCACAGGUAGGUCGCCUCAGCGCACGAGUGAUGUUCGUGGGC [Veti]" experimental_target="K4 kissing-loop RNA reporter" quantity_measured="apparent KD of K4 kissing-loop reporter" unit_of_measure=nM obs_value=393
residue_codes="GAUGCCAUGAUCCUCCUGGUAUCGGGAGAUACCAGCGUGCUGACACGCCCUUGGCAGCUCCAUUCGAGAGUGAUGUUGUCGAGAA [KL-SSTheo-A8 #analogue]" experimental_target="K4 kissing-loop RNA reporter" quantity_measured="apparent KD of K4 kissing-loop reporter" unit_of_measure=nM obs_value=330
residue_codes="UCGAUCGCUAGUGAUGUUGGUGUGCUACAUCGAGGACCGGUACGGCCGCCACUCGAGCCCGAGUAGAAGGGUGGGCUGCUAUGAA [theeternabot_sameState_KL_Trp_A_18]" experimental_target="K4 kissing-loop RNA reporter" quantity_measured="apparent KD of K4 kissing-loop reporter" unit_of_measure=nM obs_value=1190
residue_codes="AAUUUUAAUAAUAAAUAAUAAAUAAAUGAUACCAGUAUUUUUUUUUACCCUUGGCAGCGUAUAUAAGGGCAGUGAUGUUGUCAAA [whbob_SS_Theo_A_w58]" experimental_target="K4 kissing-loop RNA reporter" quantity_measured="apparent KD of K4 kissing-loop reporter" unit_of_measure=nM obs_value=153
residue_codes="AUGUAUGAAUUAGGAUAUCGUUAGCCUAUCAUAUAUAUGAUAAAUGGAUAUGUCGUAGUGAUGUUACGAGAAGGAGUGUGGAGUA [KL-XFMN-B7]" experimental_target="K4 kissing-loop RNA reporter" quantity_measured="apparent KD of K4 kissing-loop reporter" unit_of_measure=nM obs_value=55.4
residue_codes="AAGUGUCAUUAGACACACCGAUGUAUAAACUAGGAUAUGCUGAUAAGCAGAAGGAGUGAUGUUCCUUUCAUCAUCGGAAUUAAAU [#06 K4 FMN A Exclusion]" experimental_target="K4 kissing-loop RNA reporter" quantity_measured="apparent KD of K4 kissing-loop reporter" unit_of_measure=nM obs_value=160
residue_codes="UGUACCGACUCAGGAUAUGUCGUCGAAAGACGAAAUGGAGUGAUGUUCCUUAAACUGCGAAAGCAGACAGAAGGGAGUUGGUACU [FmnBS 29 C9+G77]" experimental_target="K4 kissing-loop RNA reporter" quantity_measured="apparent KD of K4 kissing-loop reporter" unit_of_measure=nM obs_value=235
residue_codes="AAAGGAUCAGAGAGUGAUGUUCUCUAAUAACGAGGACCGGUACGGCCGCCACUCGAAUAGAUCCAAGUCCUACGAAAAGUAGGAC [Omei inspired 8]" experimental_target="K4 kissing-loop RNA reporter" quantity_measured="apparent KD of K4 kissing-loop reporter" unit_of_measure=nM obs_value=316
residue_codes="AACCGUGUGGCGGCCGCCACUAGUCUCCAGUGAUGUUGGAGAGACCACGUAAGUGGUCUCCAACAUAGGACCGGGCCAUAUGGAA [Same State - Tryptophan B (Freestyle 26)]" experimental_target="K4 kissing-loop RNA reporter" quantity_measured="apparent KD of K4 kissing-loop reporter" unit_of_measure=nM obs_value=106
residue_codes="UGAUACCAGACUGAUACCAGCCAGUGAUGUUGGCUAAGCCAAAUAGGUGUCAAAGACACCGGCCCUUGGCAGCAGUCUGGUAUCU [TheoBX 2 #SwitchBubble #StaticStem]" experimental_target="K4 kissing-loop RNA reporter" quantity_measured="apparent KD of K4 kissing-loop reporter" unit_of_measure=nM obs_value=126
residue_codes="UUUAACGAGUGAUGUUCGAAAAGUAAUGGUGAGGAUAUCGAUUUUUCGAGAAGGCACCUCGAAGUGAUACGAAAGUAUCGCUUCG [FMN A 4]" experimental_target="K4 kissing-loop RNA reporter" quantity_measured="apparent KD of K4 kissing-loop reporter" unit_of_measure=nM obs_value=261
residue_codes="GCUGUCCAGUUCGAUACCAGAGUUAUCGCACUGUAGUGAUAAAGUGAUGUUUUAUCAGUCCUCCCUUGGCAGCGAUGCCCGGCUG [theeternabot_exclusion_KL_Theo_B_25]" experimental_target="K4 kissing-loop RNA reporter" quantity_measured="apparent KD of K4 kissing-loop reporter" unit_of_measure=nM obs_value=166
residue_codes=GGGUGAGCGCGAAGGAGCGCCCUGACAGGUUGCUGCCGUGGGCAGUGAUGUUGCUCAGUCCGGCAGGUAGGUCGCGUGCUCACCC experimental_target="K4 kissing-loop RNA reporter" quantity_measured="apparent KD of K4 kissing-loop reporter" unit_of_measure=nM obs_value=164
residue_codes="ACACUUACACAUGAUACCAGAAUUCUACCGUAAAUAGUAAGUGAUGUUUGCUAACGGCUUUUCCCUUGGCAGCAUGAUCGGUAUU [theeternabot_sameState_KL_Theo_B_43]" experimental_target="K4 kissing-loop RNA reporter" quantity_measured="apparent KD of K4 kissing-loop reporter" unit_of_measure=nM obs_value=178
residue_codes="AAUGUACAGGGAAGGAGCGUAGUCCAGUGAUGUUGGAAUUAAAUACCAGUGAUGUUGGUUAUACAGGUAGGUCGCCCUAAAGUGC [KL-XARG-B20]" experimental_target="K4 kissing-loop RNA reporter" quantity_measured="apparent KD of K4 kissing-loop reporter" unit_of_measure=nM obs_value=81.9

----------
tested on: MS2 coat protein; experiment: apparent KD of MS2 coat protein; higher = weaker reporter binding; conditions: Eterna round: R107; input ligand: theophylline 20 uM
Rule: apparent KD of MS2 coat protein of 0.03 µM or more gives satisfied; anything lower gives not satisfied.

residue_codes="UACAGUACAACAGAUACCAGACAGUACUCUAGAUUGCAACAUGAGGAUCACCCAUGUAUAGUCCCUUGGCAGCUGUAAUGGGUGA [Theo B SS s1]" class_name=satisfied
residue_codes="AUAUUAAAGAGUGAUACCAGACUACAUGAGGAUCACCCAUGUUACAUUUAAAUAUCAUUUGUCCCUUGGCAGCACAUUAAGUACA [JR_Nu_ExcTheophyB_Sub022]" class_name="not satisfied"
residue_codes="GCACUACAUGAGGAUCACCCAUGUGCAGAUACCAGAGGUGUAUGCCUCCCUUGGCAGCUGCGUCGCUCUGGCAGCUUGUGGGUUG [Same State Theophylline A GF18]" class_name=satisfied
residue_codes="AUCGGCAGAAAAGAUACCAGAGUAAUACACAACAUGAGGAUCACCCAUGUACGGACAAUCCUCCCUUGGCAGCUUGUAACAGUAU [theeternabot_sameState_MS2_Theo_B_32]" class_name=satisfied
residue_codes="CUUGUGCUGACGGCCGCCACUUUAUGGGAGUCCUGUUCUGAUUGAUACAUGAGGAUCACCCAUGUAAGGACCGGGUCGUACCAUA [theeternabot_exclusion_MS2_Trp_B_22]" class_name="not satisfied"
residue_codes="GACAUGAGGAUCACCCAUGUACCGCGAGAAGGAGCGCGGAUAAACGCAGGUAGGUCGCUCGUGGGCUUGUAUUCAAUCGUAAGCU [Anlaaranan]" class_name=satisfied
residue_codes="UGACAUUGCUCAGAUACCAGACAUGAGGAUCACCCAUGUACCAAGGUAAAGAAAUAACGUGUCCCUUGGCAGCUGAGCAAUGUCU [TheoBX 1 #MS2Left #Theo2]" class_name="not satisfied"
residue_codes="CCCUCCAGAACGGCCGCCACUAAAGGGUUGUGUGCGACUCCGGAACAUGAGGAUCACCCAUGUCUUAGGACCGGGUUCCCUUCUA [theeternabot_sameState_MS2_Trp_B_30]" class_name=satisfied
residue_codes="CCUCAUGUGGUGCUGCACAUGAGAGGUGAUACCAGCAUCGAAAGAUGCCCUUGGCAGCACCAACAUGAGGAUCACCCAUGUAAUA [(M)'-(T)'-(M)''-(T1)-(T2)-(M1)-(M2)_Design1]" class_name=satisfied
residue_codes="UUGUGGCGCUCGGCCGCCACUCCGACAUGAGGAUCACCCAUGUUCUACAUGAGGAUCACCCAUGUGAGGACCGGGAGACACAACC [Exclusion Tryptophan B GF12]" class_name=satisfied
residue_codes="AAGGUGAUCCCAGAUACCAGCUCAACAUGAGGAUCACCCAUGUACGGGACGAAAGUCCCGGGCCCUUGGCAGCUGGGUUGCCAAG [SSTheo B #19]" class_name=satisfied
residue_codes="CGCCACAUGAGGAUCACCCAUGUAAUGGCGCGAGGACCGGUACGGCCGCCACUCGCCUGGCAGUGAGCGCAUGCGGCCUGGGUAU [Exclusion Tryp A GF9]" class_name="not satisfied"
